experiment: Particle size distribution of crystals by sieving (JIS Z 8801 / JIS Z 8901); type: physicochemical; conditions: mesh size ≧350 μm
assayReadout: ratio of weight of crystals, particle size ≧350 μm (%)
Write the answer as a number in %, unit excluded.

1. C[C@@H](O)[C@H]1C(=O)N2C(C(=O)OCc3ccc([N+](=O)[O-])cc3)=C(OP(=O)(Oc3ccccc3)Oc3ccccc3)[C@H](C)[C@H]12 [Example 3]
46
2. C[C@@H](O)[C@H]1C(=O)N2C(C(=O)OCc3ccc([N+](=O)[O-])cc3)=C(OP(=O)(Oc3ccccc3)Oc3ccccc3)[C@H](C)[C@H]12 [Comparative example 2, reference compound]
19
3. C[C@@H](O)[C@H]1C(=O)N2C(C(=O)OCc3ccc([N+](=O)[O-])cc3)=C(OP(=O)(Oc3ccccc3)Oc3ccccc3)[C@H](C)[C@H]12 [Example 2]
49

API: the following record is the query input.
## Input Hello, please tell me recorded ratio of weight of crystals, particle size ≧350 μm for this one: C[C@@H](O)[C@H]1C(=O)N2C(C(=O)OCc3ccc([N+](=O)[O-])cc3)=C(OP(=O)(Oc3ccccc3)Oc3ccccc3)[C@H](C)[C@H]12 [Comparative example 3, reference compound]
## Output 30

----------
Below, each entry is listed with its recorded ratio of weight of crystals, particle size <350, ≧177 μm.
assay: Particle size distribution of crystals by sieving (JIS Z 8801 / JIS Z 8901); type: physicochemical; conditions: mesh size <350, ≧177 μm

1) C[C@@H](O)[C@H]1C(=O)N2C(C(=O)OCc3ccc([N+](=O)[O-])cc3)=C(OP(=O)(Oc3ccccc3)Oc3ccccc3)[C@H](C)[C@H]12 [Example 2]
41%
2) C[C@@H](O)[C@H]1C(=O)N2C(C(=O)OCc3ccc([N+](=O)[O-])cc3)=C(OP(=O)(Oc3ccccc3)Oc3ccccc3)[C@H](C)[C@H]12 [Comparative example 3, reference compound]
45%
3) C[C@@H](O)[C@H]1C(=O)N2C(C(=O)OCc3ccc([N+](=O)[O-])cc3)=C(OP(=O)(Oc3ccccc3)Oc3ccccc3)[C@H](C)[C@H]12 [Example 3]
36%

API: the following record is the query input.
## Input Hello, please tell me recorded ratio of weight of crystals, particle size <350, ≧177 μm for this one: C[C@@H](O)[C@H]1C(=O)N2C(C(=O)OCc3ccc([N+](=O)[O-])cc3)=C(OP(=O)(Oc3ccccc3)Oc3ccccc3)[C@H](C)[C@H]12 [Comparative example 2, reference compound]
## Output 47%

----------
assay: Particle size distribution of crystals by sieving (JIS Z 8801 / JIS Z 8901); type: physicochemical; settings: mesh size <177 μm
assayReadout: ratio of weight of crystals, particle size <177 μm (%)
Write the answer as a number in %, unit excluded.

1) C[C@@H](O)[C@H]1C(=O)N2C(C(=O)OCc3ccc([N+](=O)[O-])cc3)=C(OP(=O)(Oc3ccccc3)Oc3ccccc3)[C@H](C)[C@H]12 [Comparative example 3, reference compound]
25
2) C[C@@H](O)[C@H]1C(=O)N2C(C(=O)OCc3ccc([N+](=O)[O-])cc3)=C(OP(=O)(Oc3ccccc3)Oc3ccccc3)[C@H](C)[C@H]12 [Example 3]
18
3) C[C@@H](O)[C@H]1C(=O)N2C(C(=O)OCc3ccc([N+](=O)[O-])cc3)=C(OP(=O)(Oc3ccccc3)Oc3ccccc3)[C@H](C)[C@H]12 [Example 2]
10

API: the following record is the query input.
## Input Hello, please tell me recorded ratio of weight of crystals, particle size <177 μm for this one: C[C@@H](O)[C@H]1C(=O)N2C(C(=O)OCc3ccc([N+](=O)[O-])cc3)=C(OP(=O)(Oc3ccccc3)Oc3ccccc3)[C@H](C)[C@H]12 [Comparative example 2, reference compound]
## Output 34
